The origin of these recorded values is PubChem BioAssay AID1159580.

# METHOD: chemical genetic growth profiling, strain panel (AID 1159580);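 also: tested at 20 µM; growth read once vehicle control cultures reached saturation at 30 °C; 1 = growth at the plate median or of vehicle wells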
# TEST CONDITIONS: S. cerevisiae deletion strains, growth OD, locus YJL187C, strain SWE1 (second series), stronger effect = lower value
The campaign covered roughly 5,500 compounds. About 2,000 (36%) were called active. Inconclusive results (about 18%) are left out. Some of the results follow.
Would you mind telling me the reported normalized growth of each entry?

Assign normalized growth to the following record: COC(=O)COc1ccc(Cl)cc1Cl
1.01 (inactive)

Assign normalized growth to the following record: CC1(C)C2CC[C@]3(C)C(C(=O)C=C4[C@H]5C[C@@](C)(C(=O)O)CC[C@]5(C)CC[C@]43C)[C@@]2(C)CC[C@@H]1O (stereo not given in full)
1 (inactive)

Assign normalized growth to the following record: O=C(O)COc1cc(Cl)c(Cl)cc1Cl
1.01 (inactive)

Assign normalized growth to the following record: CCCCCCCCCCCCC[N+](C)(C)Cc1ccccc1
0.0466 (active)

Assign normalized growth to the following record: COC(=O)COc1cc(Cl)c(Cl)cc1Cl
0.983 (inactive)

====

# METHOD: chemical genetic growth profiling, strain panel (AID 1159580);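 also: tested at 20 µM; growth read once vehicle control cultures reached saturation at 30 °C; 1 = growth at the plate median or of vehicle wells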
# TEST CONDITIONS: S. cerevisiae deletion strains, growth OD, locus YER155C, strain BEM2 (second series)
Out of some 5,500 compounds screened, about 2,000 (36%) were called active. About 18% were inconclusive and are not listed. No stated cut-off is given here; in the data, active means normalized growth mostly below about 0.91 (no sharp cut-off); inconclusive means no clear call, values can overlap the other calls; inactive means mostly above about 0.92. Some of the results follow.
Choose one outcome from this list and give only that: active, inactive

Called result for Cc1cc(OC(=O)N2CCCCC2)c(C(C)C)cc1[N+](C)(C)C
inactive

Called result for Cc1cccc(Nc2cc(Cl)nc(SCC(=O)O)n2)c1C
inactive

Called result for COC(=O)C1[C@H]2C[C@H]3c4[nH]c5ccccc5c4CCN3C[C@@H]2CC[C@@H]1O (stereo not given in full)
inactive

Called result for CCc1nc(N)nc(N)c1-c1ccc(Cl)cc1
inactive

Called result for CC(=O)CC(=O)CCC(=O)O
inactive

Called result for COC(=O)[C@@H]1C(O)CC[C@H]2CN3CCc4c([nH]c5ccccc45)[C@@H]3C[C@@H]21 (stereo not given in full)
inactive

Called result for C=C1CC[C@H](O)C/C1=C/C=C1\CCC[C@]2(C)C([C@H](C)/C=C/[C@H](C)C(C)C)CC[C@@H]12 (stereo not given in full)
inactive

Called result for Cc1c(N(C)C)c(=O)n(-c2ccccc2)n1C
inactive

Called result for CCSC(=N)N
inactive

Called result for CCN(CC)C(=S)SSC(=S)N(CC)CC
active

====

Would you mind telling me the reported normalized growth of each entry?
# METHOD: chemical genetic growth profiling, strain panel (AID 1159580);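 also: tested at 20 µM; growth read once vehicle control cultures reached saturation at 30 °C; 1 = growth at the plate median or of vehicle wells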
# TEST CONDITIONS: S. cerevisiae deletion strains, growth OD, locus YHR030C, strain SLT2, stronger effect = lower value
Among all 5,500 compounds or so, about 2,000 (36%) were called active. Inconclusive results (about 18%) are left out. The list shows a part of the results.
Answer using only a numeral; do not append any unit.

Assign normalized growth to the following record: CCCC(C)(SCC(=O)O)SCC(=O)O
1.03

Assign normalized growth to the following record: CCOC(=O)COc1ccc2c(c1)OC(C)(C)CC2=O
0.947

Assign normalized growth to the following record: Cc1c(O)cc(O)c2c(=O)c(-c3ccc(O)cc3)coc12
1

Assign normalized growth to the following record: COc1cc2oc3cc(OC)c(OC)c(CC=C(C)C)c3c(=O)c2c(OC)c1CC=C(C)C
0.934

Assign normalized growth to the following record: COC(=O)c1c(Cl)c(Cl)c(C(=O)OC)c(Cl)c1Cl
0.971

Assign normalized growth to the following record: CC(C)N(C(=O)CCl)c1ccccc1
1

Assign normalized growth to the following record: CN(C)/C=C(\C#N)C(=O)Nc1ccc(F)c(Cl)c1
0.983

Assign normalized growth to the following record: CC(SCc1ccccc1)C(=O)O (configuration not stated)
0.992

Assign normalized growth to the following record: CC(=O)CC(=O)CCC(=O)O
0.982

Assign normalized growth to the following record: NC1=C(c2ccccc2)C(=O)NC1=O
1.02

Assign normalized growth to the following record: COc1cc2oc3cc(OC)c(OC)c(CC=C(C)C)c3c(=O)c2c(O)c1CC=C(C)C
0.981

Assign normalized growth to the following record: NC(N)=NOCC[C@H](N)C(=O)O
0.978

Assign normalized growth to the following record: COc1cc(OC)c2c(c1)O[C@H](c1ccc(OC)c(OC)c1)[C@@H](O)C2
0.996

Assign normalized growth to the following record: COc1cc(O)c2c(=O)cc(C)oc2c1CC=C(C)C
0.95

Assign normalized growth to the following record: CC(=O)/C(=C\Nc1ncccn1)S(=O)(=O)c1ccc(Cl)cc1
0.822

Assign normalized growth to the following record: Cc1ccccc1C(=O)N1CCc2c([nH]c3ccccc23)C1C(F)(F)F (configuration not stated)
0.881

Assign normalized growth to the following record: O=C(O)C1C(O)CCC2CN3CCc4c([nH]c5ccccc45)C3CC21 (configuration not stated)
1.01
